- Subject of test: T1, human CD112R on antigen-specific CD8+ T cells (human, UniProt Q6DKI7 1-326)
- T1 sequence (looked up): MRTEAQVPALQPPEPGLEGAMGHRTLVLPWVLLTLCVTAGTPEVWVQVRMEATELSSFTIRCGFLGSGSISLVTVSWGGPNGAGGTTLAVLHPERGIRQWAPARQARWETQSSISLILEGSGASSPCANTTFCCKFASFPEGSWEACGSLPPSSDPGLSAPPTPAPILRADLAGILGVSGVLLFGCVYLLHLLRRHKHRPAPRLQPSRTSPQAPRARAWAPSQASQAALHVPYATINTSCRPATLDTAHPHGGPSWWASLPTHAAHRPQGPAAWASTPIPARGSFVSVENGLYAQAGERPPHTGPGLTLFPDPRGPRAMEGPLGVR
- Assay protocol: cell-based or functional assay
Reported property: IFN-γ(pg/ml) at 0.5µg/ml antibody (pg/mL)
Give a bare numeral; the unit pg/mL is implied.

Example entries begin here.
Binder	IFN-γ(pg/ml) at 0.5µg/ml antibody, pg/mL
anti-CD112R antibody CHA.7.518 (antibody, V domains shown, synthesised according to WO/2016/134333; also called Tab-1; Tab 1) VH: QVQLVQSGAEVKKPGASVKVSCKASGYTFTDYNINWVRQAPGQGLEWMGYIYPYIGGSGYAQKFQGRVTMTRDTSTSTVYMELSSLRSEDTAVYYCAREDKTARNAMDYWGQGTLVTVSS VL: DIQMTQSPSSLSASVGDRVTITCRVSENIYSNLAWYQQKPGKAPKLLIYEATNLAEGVPSRFSGSGSGTDFTLTISSLQPEDFATYYCQHFWGTPYTFGQGTKLEIKR	696
C7 (antibody, human IgG1, kappa, V domains shown) VH: EVQLQQSGPELVKPGASVKISCKASGYTLTDYYMNWVKQSHGKSLEWIGDINPNNGGTNFNQKFKGKATLTIDKSSSTTYMELRSLTSEDSAVYYCASLFFDYWGQGTTLTVSS VL: DIVMTQSPSSLSVSAGEKVTMSCKSSQSLLNSGNQKNYLAWYQQKPGQPPKLLIYGASTRESGVPDRFTGSGSGTDFTLTISSVQAEDLALYYCQNAHSSPYTFGGGTKLEIKR	818

Read the next record carefully.
Requested field: IFN-γ(pg/ml) at 0.5µg/ml antibody. Item: C1 (antibody, human IgG1, kappa, V domains shown) VH: QVHLQQSGPELVKPGASLKISCKASGYTFTDYYLNWVKQRPGQGLEWIGWIFPGSESTFYNEKFKGKATLTVDKSSSTAYMLLNSLTSEDSAVYFCTRDGGLRGPFDYWGQGTTLTVSS VL: DIQLTQSPSSLSASLGGKVTITCKASQDINKYIAWCQHKPGKGPRLLIHYTSTLHPGIPSRFSGSGSGRDYSFSISNLEPEDSATYYCLQYDYLLTFGGGTKLEIKR
543
